Data provenance is PubChem BioAssay AID1159580.

Experiment: chemical genetic growth profiling, strain panel (AID 1159580);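 also: tested at 20 µM; growth read once vehicle control cultures reached saturation at 30 °C; lower values mean less growth of the strain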
Settings: S. cerevisiae deletion strains, growth OD, locus YNL067W, strain RPL9B
In all, about 5,500 compounds went through this assay and about 2,000 (36%) were called active. Not shown: some 18% with an inconclusive outcome. Rule as the data show it: active = normalized growth mostly below about 0.91 (no sharp cut-off); inconclusive = no clear call, values can overlap the other calls; inactive = mostly above about 0.92. Some of the results follow.
Outcomes: YES for active, NO for inactive

{"columns": ["molecule", "category.label"],
 "data": [
  ["C=C1C(=O)O[C@@H]2C3O[C@]3(C)CC/C=C(\\C)CC[C@@H]12 (some centres not stated)", "YES"],
  ["CC(C(=O)O)c1ccc(C(=O)c2cccs2)cc1 (configuration not stated)", "NO"],
  ["C=C1CCC2C(CC2(C)C)C(=C)CC/C1=N\\O (configuration not stated)", "NO"],
  ["COc1cc2c(cc1OC)C1Cc3ccc(OC)c(OC)c3CN1CC2 (configuration not stated)", "NO"],
  ["O=C(O)CN1C(=O)c2cccc3cccc(c23)C1=O", "NO"],
  ["CC1(C)C2(Cl)C(Cl)C(Cl)C(Cl)(C(Cl)Cl)C1(Cl)C2Cl (configuration not stated)", "NO"],
  ["CCCCN1CCCCC1C(=O)Nc1c(C)cccc1C (configuration not stated)", "NO"],
  ["COc1ccc(CCN2CCC(Nc3nc4ccccc4n3Cc3ccc(F)cc3)CC2)cc1", "NO"],
  ["CC1OC1P(=O)(O)O (configuration not stated)", "NO"],
  ["C=C1C(=O)O[C@@H]2C[C@@]3(C)CCC[C@H](C)C3=C[C@H]12", "NO"],
  ["COC(=O)C1=CCCN(C)C1", "NO"],
  ["CCN(CC)C(=O)c1cccc(C)c1", "NO"],
  ["C/C1=C\\CCC(=O)C2CC(C)(C)C2CC1 (configuration not stated)", "NO"],
  ["Cc1cccc(C)c1NC1=NCCCS1", "NO"],
  ["COC(=O)C[C@H]1C(C)(C)C(=O)[C@@H]2CC3=C(CC[C@]4(C)C3=CC(=O)O[C@H]4c3ccoc3)[C@@]1(C)C2=O", "NO"],
  ["Clc1cccc(Cl)c1NC1=NCCN1", "NO"],
  ["CC(C)C(=O)Nc1ccc([N+](=O)[O-])c(C(F)(F)F)c1", "NO"],
  ["CO[C@@]1(NC(=O)CSCC#N)C(=O)N2C(C(=O)O)=C(CSc3nnnn3C)CSC21 (some centres not stated)", "NO"],
  ["CC1(C)OC(=O)C=CC2(C)C1CC(O)C1(C)C2CCC2(C)C(c3ccoc3)OC(=O)C3OC321 (configuration not stated)", "NO"],
  ["COC(=O)C(C)c1ccc(C(=O)c2cccs2)cc1 (configuration not stated)", "NO"],
  ["Cc1cccc(Nc2ccccc2C(=O)O)c1C", "NO"],
  ["COC(=O)C(O)c1ccccc1 (configuration not stated)", "NO"]
]}

* * *

Assay: chemical genetic growth profiling, strain panel (AID 1159580);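 also: tested at 20 µM; growth read once vehicle control cultures reached saturation at 30 °C; lower values mean less growth of the strain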
Details: S. cerevisiae deletion strains, growth OD, locus YJL168C, strain set2
The whole screen tested about 5,500 compounds, of which about 2,000 (36%) were called active. Roughly 18% stayed inconclusive and do not appear here. Cut-off read from the data, not from the text of the source: active = normalized growth mostly below about 0.91 (no sharp cut-off); inconclusive = no clear call, values can overlap the other calls; inactive = mostly above about 0.92. Some of the results follow.
Possible outcomes: active, inactive

{"columns": ["compound", "category.label"],
 "data": [
  ["CCC(C)c1cnc(CC(C)C)c(=O)n1O (stereo not given)", "inactive"],
  ["C=C1C(=O)OC2CC1C(OC(C)=O)C/C(C)=C/CC/C(C)=C/CC[C@]2(C)O (stereo not given in full)", "inactive"],
  ["CO/N=C(\\C(=O)NC1C(=O)N2C(C(=O)O)=C(COC(N)=O)CSC12)c1ccco1 (stereo not given)", "active"],
  ["C=C1C(C)C2C(Cc3ccccc3)NC(=O)C23OC(=O)/C=C/C(=O)CCCC(C)C/C=C/C3C1O (stereo not given)", "inactive"],
  ["C=C1C(C)C2C(Cc3ccccc3)NC(=O)C23OC(=O)/C=C/C(O)CCCC(C)C/C=C/C3C1O (stereo not given)", "inactive"],
  ["CC(C)C(=O)Nc1ccc([N+](=O)[O-])c(C(F)(F)F)c1", "inactive"],
  ["CC[N+](CC)(CC)CCOc1cccc(OCC[N+](CC)(CC)CC)c1OCC[N+](CC)(CC)CC", "inactive"],
  ["CC1(C)NC(=O)N(c2ccc([N+](=O)[O-])c(C(F)(F)F)c2)C1=O", "inactive"],
  ["CO/N=C(\\C(=O)N[C@@H]1C(=O)N2C(C(=O)O)=C(COC(C)=O)CS[C@H]12)c1csc(N)n1", "inactive"],
  ["CC(C)NNC(=O)c1ccncc1", "inactive"]
]}
